Tested target: Beta-lactamase (Enterobacter cloacae)
Sequence (P05364 whole entry): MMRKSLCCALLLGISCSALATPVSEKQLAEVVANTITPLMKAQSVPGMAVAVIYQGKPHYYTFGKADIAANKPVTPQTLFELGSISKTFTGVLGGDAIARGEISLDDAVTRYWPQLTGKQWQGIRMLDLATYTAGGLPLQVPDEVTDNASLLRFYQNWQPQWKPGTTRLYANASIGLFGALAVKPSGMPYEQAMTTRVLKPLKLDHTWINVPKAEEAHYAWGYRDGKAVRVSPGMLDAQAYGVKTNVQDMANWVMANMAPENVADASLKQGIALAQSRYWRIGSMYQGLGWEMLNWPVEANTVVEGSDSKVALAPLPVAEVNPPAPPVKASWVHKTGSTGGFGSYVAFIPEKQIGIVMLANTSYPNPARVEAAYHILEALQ
Measurement protocol: Inhibitory activity against Class C beta-lactamase
Kindly supply the reported pIC50 values for the records listed here.
Answer as the number alone; pIC50 is minus log10 of concentration in mol/L.

Input line: Quick one: pIC50 for O=C(O)C1=C(S(=O)(=O)c2ccccc2)CS(=O)(=O)[C@@H]2/C(=C\c3ccccn3)C(=O)N12 ?
Output line: 6.76

Input line: Similarly, O=C(/C=C/C1=C(C(=O)O)N2C(=O)/C(=C/c3ccccn3)[C@H]2S(=O)(=O)C1)NO ?
Output line: 6.89

Input line: Subsequent entry: O=C(/C=C/C1=C(C(=O)O)N2C(=O)/C(=C/c3ccccn3)[C@H]2S(=O)(=O)C1)Nc1ccc(O)cc1
Output line: 7.46

Input line: Quick one: O=C(/C=C/C1=C(C(=O)O)N2C(=O)/C(=C/c3ccccn3)[C@H]2S(=O)(=O)C1)NC1CC1
Output line: 6.08

Input line: Please give the result for O=C(O)C1=C(I)CS(=O)(=O)[C@@H]2/C(=C\c3ccccn3)C(=O)N12 too.
Output line: 8.33

Input line: O=C(O)C1=C(c2ccccc2)CS(=O)(=O)[C@@H]2/C(=C\c3ccccn3)C(=O)N12 , same question.
Output line: 7.42

Input line: Note, next up: CN1CCN(C(=O)/C=C/C2=C(C(=O)O)N3C(=O)/C(=C/c4ccccn4)[C@H]3S(=O)(=O)C2)CC1
Output line: 5.20

Input line: Again, but for O=C(O)CNC(=O)/C=C/C1=C(C(=O)O)N2C(=O)/C(=C/c3ccccn3)[C@H]2S(=O)(=O)C1
Output line: 6.51

Input line: Thanks! And O=C(O)C1=C(Cl)CS(=O)(=O)[C@@H]2/C(=C\c3ccccn3)C(=O)N12 ?
Output line: 8.52

Input line: Please answer likewise for NCCCNC(=O)/C=C/C1=C(C(=O)O)N2C(=O)/C(=C/c3ccccn3)[C@H]2S(=O)(=O)C1
Output line: 5.38

Input line: Entry CS(=O)(=O)C1=C(C(=O)O)N2C(=O)/C(=C/c3ccccn3)[C@H]2S(=O)(=O)C1 please
Output line: 7.04

Input line: Try this compound next: O=C(O)C1=CCS(=O)(=O)[C@@H]2/C(=C\c3ccccn3)C(=O)N12
Output line: 6.94

Input line: Follow-up item: NC(=O)/C=C/C1=C(C(=O)O)N2C(=O)/C(=C/c3ccccn3)[C@H]2S(=O)(=O)C1
Output line: 7.66

Input line: Would you mind doing O=C(O)C1=C(F)CS(=O)(=O)[C@@H]2/C(=C\c3ccccn3)C(=O)N12 as well?
Output line: 7.96

Input line: Repeat for the following compound: O=C(/C=C/C1=C(C(=O)O)N2C(=O)/C(=C/c3ccccn3)[C@H]2S(=O)(=O)C1)NCCO
Output line: 6.67

Input line: // next record N=C(N)NCCNC(=O)/C=C/C1=C(C(=O)O)N2C(=O)/C(=C/c3ccccn3)[C@H]2S(=O)(=O)C1
Output line: 8.26

Input line: Follow-up entry: O=C(O)C1=C(c2cccs2)CS(=O)(=O)[C@@H]2/C(=C\c3ccccn3)C(=O)N12
Output line: 7.39

Input line: Request: CSC1=C(C(=O)O)N2C(=O)/C(=C/c3ccccn3)[C@H]2S(=O)(=O)C1
Output line: 7.23

Input line: And O=C(O)C1=C(Br)CS(=O)(=O)[C@@H]2/C(=C\c3ccccn3)C(=O)N12 ?
Output line: 8.54

Input line: Again, but for O=C(/C=C/C1=C(C(=O)O)N2C(=O)/C(=C/c3ccccn3)[C@H]2S(=O)(=O)C1)NCc1ccccc1
Output line: 6.96

Input line: Try NNC(=O)/C=C/C1=C(C(=O)O)N2C(=O)/C(=C/c3ccccn3)[C@H]2S(=O)(=O)C1 next.
Output line: 5.96

Input line: What would you report for O=C(/C=C/C1=C(C(=O)O)N2C(=O)/C(=C/c3ccccn3)[C@H]2S(=O)(=O)C1)Nc1c(F)c(F)c(F)c(F)c1F ?
Output line: 6.90

Input line: Next entry: O=C(O)C1=C(Sc2ccccc2)CS(=O)(=O)[C@@H]2/C(=C\c3ccccn3)C(=O)N12
Output line: 7.66

Input line: Proceed to O=C(/C=C/C1=C(C(=O)O)N2C(=O)/C(=C/c3ccccn3)[C@H]2S(=O)(=O)C1)NCC(F)(F)F
Output line: 5.93

Input line: Another compound to look at: O=C(O)C1=C(C(=O)O)N2C(=O)/C(=C/c3ccccn3)[C@H]2S(=O)(=O)C1
Output line: 7.49
